Experiment: Inhibition of Trichomonas vaginalis G3 AE1 expressed in Pichia pastoris after 20 mins
pIC50: −log10 of the molar value.
Observation Type: pIC50

- COc1ccc(CN(Cc2ccccc2)C(=O)/C=C/C(=O)N(CC(N)=O)NC(=O)[C@H](C)NC(=O)[C@H](C)NC(=O)OCc2ccccc2)cc1: 8.64
- C[C@H](NC(=O)OCc1ccccc1)C(=O)N[C@@H](C)C(=O)NN(CC(N)=O)C(=O)/C=C/C(=O)N(C)C(Cc1ccccc1)C(=O)N(C)CCc1ccccc1 (stereo partly drawn): 7.10
- C[C@H](NC(=O)OCc1ccccc1)C(=O)N[C@@H](C)C(=O)NN(CC(N)=O)C(=O)/C=C/C(=O)N(C)c1ccccc1: 8.30

* * *

Target: Papain (Carica papaya)
Sequence (whole entry): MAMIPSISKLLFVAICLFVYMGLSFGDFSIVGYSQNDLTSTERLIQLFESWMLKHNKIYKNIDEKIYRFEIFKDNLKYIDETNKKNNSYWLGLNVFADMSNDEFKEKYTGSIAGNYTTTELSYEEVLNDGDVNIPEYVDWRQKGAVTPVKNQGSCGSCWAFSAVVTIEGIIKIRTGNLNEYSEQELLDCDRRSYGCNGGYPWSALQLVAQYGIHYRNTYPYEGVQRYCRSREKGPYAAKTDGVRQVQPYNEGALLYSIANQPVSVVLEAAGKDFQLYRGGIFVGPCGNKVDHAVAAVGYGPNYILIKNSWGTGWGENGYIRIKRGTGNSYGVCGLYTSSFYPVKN
Assay: Inhibition of papain assessed as ratio of pseudo-first-order inhibition rate constant to inhibitor concentration
Active and inactive are the calls of the source. No cut-off for these calls is given here.
Observation Type: Activity

• C[C@H](NC(=O)OCc1ccccc1)C(=O)N[C@@H](C)C(=O)NN(CC(N)=O)C(=O)/C=C/C(=O)N(C)Cc1ccccc1 = inactive
• C[C@H](NC(=O)OCc1ccccc1)C(=O)N[C@@H](C)C(=O)NN(CC(N)=O)C(=O)/C=C/C(=O)N(C)Cc1cccc2ccccc12 = inactive
• C[C@H](NC(=O)OCc1ccccc1)C(=O)N[C@@H](C)C(=O)NN(CC(N)=O)C(=O)/C=C/C(=O)N1CCc2ccccc21 = inactive
• CCOC(=O)/C=C/C(=O)N(CC(N)=O)NC(=O)[C@H](C)NC(=O)[C@H](C)NC(=O)OCc1ccccc1 = inactive

* * *

# key: entry, value: pIC50
Experiment: Inhibition of Trichomonas vaginalis G3 AE1 expressed in Pichia pastoris after 20 mins
pIC50: −log10 of the molar value.
Observation Type: pIC50

• C[C@H](NC(=O)OCc1ccccc1)C(=O)N[C@@H](C)C(=O)NN(CC(N)=O)C(=O)/C=C/C(=O)N(Cc1ccccc1)Cc1ccc2ccccc2c1 = 8.22
• CCN(CC)C(=O)/C=C/C(=O)N(CC(N)=O)NC(=O)[C@H](C)NC(=O)[C@H](C)NC(=O)OCc1ccccc1 = 5.70
• C[C@H](NC(=O)OCc1ccccc1)C(=O)N[C@@H](C)C(=O)NN(CC(N)=O)C(=O)/C=C/C(=O)Nc1ccccc1 = 7.70
• C[C@H](NC(=O)OCc1ccccc1)C(=O)N[C@@H](C)C(=O)NN(CC(N)=O)C(=O)/C=C/C(=O)N1CCc2ccccc21 = 7.30
• C[C@H](NC(=O)OCc1ccccc1)C(=O)N[C@@H](C)C(=O)NN(CC(N)=O)C(=O)/C=C/C(=O)N1CCc2ccccc2C1 = 8.00
• C[C@H](NC(=O)OCc1ccccc1)C(=O)N[C@@H](C)C(=O)NN(CC(N)=O)C(=O)/C=C/C(=O)N(Cc1ccco1)Cc1ccco1 = 5.30
• C[C@H](NC(=O)OCc1ccccc1)C(=O)N[C@@H](C)C(=O)NN(CC(N)=O)C(=O)/C=C/C(=O)N(Cc1ccccc1)Cc1ccccc1 = 8.00
• C[C@H](NC(=O)OCc1ccccc1)C(=O)N[C@@H](C)C(=O)NN(CC(N)=O)C(=O)/C=C/C(=O)N1Cc2ccccc2C1 = 7.70
• C[C@H](NC(=O)OCc1ccccc1)C(=O)N[C@@H](C)C(=O)NN(CC(N)=O)C(=O)/C=C/C(=O)N1CCCc2ccccc21 = 8.46
• C[C@H](NC(=O)OCc1ccccc1)C(=O)N[C@@H](C)C(=O)NN(CC(N)=O)C(=O)/C=C/C(=O)NCc1ccc(F)cc1 = 7.12
• CCCCN(CCCC)C(=O)/C=C/C(=O)N(CC(N)=O)NC(=O)[C@H](C)NC(=O)[C@H](C)NC(=O)OCc1ccccc1 = 6.00
• C[C@H](NC(=O)OCc1ccccc1)C(=O)N[C@@H](C)C(=O)NN(CC(N)=O)C(=O)/C=C/C(=O)OCc1ccccc1 = 8.30

Data origin, for the record: ChEMBL document CHEMBL1150273
